- TARGET_OR_SYSTEM: CYP3A4 (Homo sapiens, UniProt P08684)
- Sequence (P08684 whole entry): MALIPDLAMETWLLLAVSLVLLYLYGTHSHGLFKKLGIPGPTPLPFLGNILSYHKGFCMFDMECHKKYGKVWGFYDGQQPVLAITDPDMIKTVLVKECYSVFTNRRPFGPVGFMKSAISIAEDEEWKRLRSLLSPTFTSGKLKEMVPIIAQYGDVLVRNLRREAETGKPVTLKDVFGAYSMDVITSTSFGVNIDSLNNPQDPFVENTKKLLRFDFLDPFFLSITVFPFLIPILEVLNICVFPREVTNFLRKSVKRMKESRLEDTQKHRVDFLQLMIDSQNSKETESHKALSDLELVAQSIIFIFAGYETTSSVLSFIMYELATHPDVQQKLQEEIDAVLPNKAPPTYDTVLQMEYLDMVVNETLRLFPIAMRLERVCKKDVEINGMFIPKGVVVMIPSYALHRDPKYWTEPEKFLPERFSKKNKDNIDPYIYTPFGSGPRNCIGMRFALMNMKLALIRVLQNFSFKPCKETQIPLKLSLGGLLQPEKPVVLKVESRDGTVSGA
- ASSAY_DETAILS: CYP inhibition in human liver microsomes, CYP3A4 (midazolam)
- Format: in vitro ADME
- Design: incubated with human liver microsomes; tissue Eurofins ITEMG232; host or cells: human liver microsomes
- CONDITION_PARAMETERS: probe midazolam, substrate midazolam, read-out: CYP3A4 midazolam Inh %
PARAMETER_MEASURED: inhibition at 10 µM (%)

Look over these answered cases.
Cc1nccn1Cc1ccc(-c2cc(CC(C)C)sc2S(=O)(=O)NC(=O)NCCC(F)(F)F)cc1	4.1
CCCCNC(=O)NS(=O)(=O)c1sc(CC(C)C)cc1-c1ccc(Cn2ccnc2C)cc1	17.1

(A) CCc1nccn1Cc1ccc(-c2cc(CC(C)C)sc2S(=O)(=O)NC(=O)NCCC(F)(F)F)cc1F.O=C(O)C(F)(F)F
(B) Cc1nccn1Cc1ccc(-c2cc(CC(C)C)sc2S(=O)(=O)NC(=O)NCc2ccccn2)cc1F
Please indicate which entry, A or B , has the lower recorded inhibition at 10 µM value. Pick one; state its label.
A
(A: -3%, B: 80%)
